System: IL-6
Assay: MG-63 Cell-Based Assay, IL-6 release after IL-1β stimulation (ELISA)
Conditions: Homo sapiens, MG63 cells, IL-1β stimulated, 24 hours with compound, read-out: IC50 (µM) in MG63 Cells IL6
Readings of IC50 for the listed molecules

Sample answers from the record:
1) COc1cc(C(O)C#Cc2cccc3c2/C(=C/c2[nH]ccc2OC)C(=O)N3)ccc1O (racemic); < 20 µM
2) COc1ccc(/C=C/c2cccc3c2/C(=C/c2[nH]ccc2OC)C(=O)N3)cc1OC; 20 µM
3) COc1ccc(C(O)C#Cc2cccc3c2/C(=C/c2[nH]ccc2OC)C(=O)N3)cc1 (racemic); < 20 µM

Please examine the following record next.
Given COc1ccc(C#Cc2cccc3c2/C(=C/c2[nH]ccc2OC)C(=O)N3)cc1 , state its recorded IC50.
< 20 µM

---

Test system: IL-6
Test: MG-63 Cell-Based Assay, IL-6 release after IL-1β stimulation (ELISA)
Details: Homo sapiens, MG63 cells, IL-1β stimulated, 24 hours with compound, read-out: IC50 (µM) in MG63 Cells IL6
Recorded IC50, one value per entry.

What measured IC50 goes with COc1cc[nH]c1/C=C1\C(=O)Nc2cccc(C#CC(O)c3cccc(OC)c3OC)c21 (racemic) ?
< 20 µM

What would you report for COc1cc[nH]c1/C=C1\C(=O)Nc2cccc(C#Cc3cccnc3)c21 ?
> 20 µM

Then this compound: C#CC(O)c1ccc[nH]1 (stereo not drawn) [CC, 3-Hydroxy-3-(1H-pyrrol-2-yl)-1-propyne]
< 20 µM

One more compound: C#CC(O)c1ccc(OC)c(O)c1 (stereo not drawn)
< 20 µM

What about COc1cc[nH]c1/C=C1\C(=O)Nc2cccc(C#CCOc3ccccc3)c21 ?
< 20 µM

How about C#CC(O)c1ccc(O)cc1 (stereo not drawn) [P, 3-Hydroxy-3-(4-hydroxyphenyl)-1-propyne] ?
< 20 µM

Can you handle COc1cc[nH]c1/C=C1\C(=O)Nc2cccc(C#CC(O)c3ccsc3)c21 (racemic) next?
< 20 µM

Param item: COc1cc[nH]c1/C=C1\C(=O)Nc2cccc(C#CC(O)c3ccc4c(c3)OCO4)c21 (racemic)
< 20 µM

Subsequent entry: COc1cc[nH]c1/C=C1\C(=O)Nc2cccc(C#Cc3ccccc3)c21
20 µM
